target: UniProt:P21589; test: Inhibition of Ecto-5′-nucleotidase (CD73) activity in CHO-CD73 cells, phosphate release from AMP; settings: CHO-K1 cells stably transfected with human CD73; 25 μM AMP; 50 minutes, 37° C.; read-out: Potency: CD73 IC50
Sequence (P21589 27-549): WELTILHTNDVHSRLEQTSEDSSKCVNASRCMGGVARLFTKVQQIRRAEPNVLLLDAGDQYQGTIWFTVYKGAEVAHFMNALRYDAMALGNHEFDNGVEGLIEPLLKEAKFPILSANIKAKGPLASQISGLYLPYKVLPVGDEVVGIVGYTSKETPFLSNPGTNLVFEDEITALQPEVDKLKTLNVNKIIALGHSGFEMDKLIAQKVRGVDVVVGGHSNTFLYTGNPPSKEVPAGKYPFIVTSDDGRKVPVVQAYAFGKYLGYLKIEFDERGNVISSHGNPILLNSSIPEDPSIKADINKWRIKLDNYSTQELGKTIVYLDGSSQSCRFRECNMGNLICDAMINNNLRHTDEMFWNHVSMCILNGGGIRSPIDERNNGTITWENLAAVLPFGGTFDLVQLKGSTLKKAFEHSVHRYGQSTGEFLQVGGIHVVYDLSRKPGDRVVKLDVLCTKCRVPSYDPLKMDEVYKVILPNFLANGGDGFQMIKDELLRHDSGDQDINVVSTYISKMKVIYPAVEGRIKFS
pIC50: −log10 of the molar value.
Overview of recorded pIC50 for various compounds

{"compound": "Cc1ccc(Cn2nccc2-c2cc(Cl)c3nnn(-c4ccc5[nH]c(=O)[nH]c5c4)c3c2)c(F)c1", "target_or_test_system": "UniProt:P21589", "pIC50": "> 7.00"}
{"compound": "COCc1n[nH]c2cc(-n3nnc4c(F)cc(-c5ccnn5Cc5ccc(C#N)cc5)cc43)ccc12", "target_or_test_system": "UniProt:P21589", "pIC50": "< 6.00"}
{"compound": "Clc1cc(-c2ccnn2CC2CCCCO2)cc2c1nnn2-c1ccc2cn[nH]c2c1 (stereo not shown)", "target_or_test_system": "UniProt:P21589", "pIC50": "6.00 to 7.00"}
{"compound": "O=c1[nH]c2ccc(-n3nnc4c(Cl)cc(-c5ccnn5Cc5ccc(Cl)c[n+]5[O-])cc43)cc2[nH]1", "target_or_test_system": "UniProt:P21589", "pIC50": "6.00 to 7.00"}
{"compound": "N#Cc1ccc(Cn2nccc2-c2cc3c(c(N)nn3-c3ccc4cn[nH]c4c3)[n+]([O-])c2)cc1", "target_or_test_system": "UniProt:P21589", "pIC50": "6.00 to 7.00"}
{"compound": "N#Cc1ccc(Cn2nccc2-c2cnc3nnn(-c4ccc5cn[nH]c5c4)c3c2)cc1", "target_or_test_system": "UniProt:P21589", "pIC50": "6.00 to 7.00"}
{"compound": "N#Cc1ccc(Cn2nccc2-c2cc(F)c3cnn(-c4ccc5cn[nH]c5c4)c3c2)nc1", "target_or_test_system": "UniProt:P21589", "pIC50": "< 6.00"}
{"compound": "O=c1[nH]c2ccc(-n3nnc4c(Cl)cc(-c5ccnn5Cc5cc(F)c(Cl)cc5Cl)cc43)cc2[nH]1", "target_or_test_system": "UniProt:P21589", "pIC50": "6.00 to 7.00"}
{"compound": "Cn1c(=O)n(-c2ccc3cn[nH]c3c2)c2cc(-c3ccnn3Cc3ccc(C#N)cc3)cnc21", "target_or_test_system": "UniProt:P21589", "pIC50": "< 6.00"}
{"compound": "COc1cc(Cl)ccc1Cn1nccc1-c1cc(F)c2nnn(-c3ccc4[nH]c(=O)[nH]c4c3)c2c1", "target_or_test_system": "UniProt:P21589", "pIC50": "6.00 to 7.00"}

Input: Form: Entry = Fc1cc(-c2ccnn2Cc2ccccc2)cc2c1nnn2-c1cc2[nH]ncc2cn1 | System = UniProt:P21589 | pIC50 = ____
Output: < 6.00

Input: Subsequent entry: CC(c1ccc(Cl)c[n+]1[O-])n1nccc1-c1cc(Cl)c2nnn(-c3ccc4cn[nH]c4c3)c2c1 (stereo not shown)
Output: 6.00 to 7.00

Input: Can you handle N#Cc1cnc(Cn2nccc2-c2cc(F)c3nnn(-c4ccc5[nH]c(=O)[nH]c5c4)c3c2)c2ccccc12 next?
Output: < 6.00

Input: # repeat for N#Cc1ccc(Cn2nccc2-c2cc(F)c3nnn(-c4ccc5[nH]c(=O)[nH]c5c4)c3c2)c(C(N)=O)c1
Output: 6.00 to 7.00

Input: Also Cc1cccc(-n2nccc2-c2cc3c(cc2C)nnn3-c2ccc3cn[nH]c3c2)c1 ?
Output: < 6.00

Input: Cn1c(-c2ccnn2Cc2ccc(C#N)cc2)cc2c(nnn2-c2ccc3cn[nH]c3c2)c1=O , same question.
Output: 6.00 to 7.00

Input: Proceed to CC(c1ccc(C#N)cc1)n1nccc1-c1cc(F)c2nnn(-c3ccc4cn[nH]c4c3)c2c1 (stereo not shown)
Output: 6.00 to 7.00

Input: Thanks! And N#Cc1ccc(Cn2nccc2-c2cc(F)c3nnn(-c4ccc5c(=O)[nH][nH]c5c4)c3c2)cc1 ?
Output: 6.00 to 7.00

Input: Another compound: N#Cc1ccc(Cn2nccc2-c2cnc3c(N)nn(-c4cc(F)c5[nH]c(=O)[nH]c5c4)c3c2)c(F)c1
Output: 6.00 to 7.00
